target.of.assay: Aurora kinase A (Homo sapiens) (UniProt O14965)
Sequence (O14965 whole entry): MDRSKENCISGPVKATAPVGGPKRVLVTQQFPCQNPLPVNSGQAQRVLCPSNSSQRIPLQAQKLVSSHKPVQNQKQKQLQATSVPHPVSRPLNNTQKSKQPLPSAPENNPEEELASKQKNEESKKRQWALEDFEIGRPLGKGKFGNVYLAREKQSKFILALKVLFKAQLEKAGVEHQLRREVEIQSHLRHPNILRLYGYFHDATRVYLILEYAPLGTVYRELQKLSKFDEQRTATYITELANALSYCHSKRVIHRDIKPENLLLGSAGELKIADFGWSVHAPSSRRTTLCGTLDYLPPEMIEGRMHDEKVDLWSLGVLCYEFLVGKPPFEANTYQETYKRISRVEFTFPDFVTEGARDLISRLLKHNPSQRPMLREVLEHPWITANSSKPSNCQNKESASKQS
assay.context: Compound concentration 20.0 uM
Description: Thermal Shift Assay. Domain: start/stop: E122-S403
Consider the following partition of reported ΔTm into named classes: low (below -0.9 °C), medium (-0.9 °C to below -0.2 °C), high (-0.2 °C or more)

{"cpd.smiles": "CS(=O)(=O)N1CCN(C(=O)c2cnc3ccc(F)cc3c2N2CCC(C#N)(c3ccccc3)CC2)CC1", "category": "medium"}
{"cpd.smiles": "C[C@@H]1CN(Cc2ncccn2)C[C@H]1c1nc2c(cnn2C2CCOCC2)c(=O)[nH]1", "category": "low"}
{"cpd.smiles": "Cn1c(=O)c2c(nc(N3CCNCC3)n2Cc2nnc(-c3ccc(Cl)c(Cl)c3)o2)n(C)c1=O", "category": "medium"}
{"cpd.smiles": "O=c1[nH]ccc2cc(F)c(NS(=O)(=O)c3ccc(N4CC[C@@H](O)C4)s3)cc12", "category": "high"}
{"cpd.smiles": "Nc1ncnc2nc(-c3ccc(N4CCOCC4)nc3)cc(-c3cccc(Br)c3)c12", "category": "high"}
{"cpd.smiles": "O=C(NCc1ccc(Cl)cc1)C1CCN(S(=O)(=O)c2cc(Cl)cc(Cl)c2)CC1", "category": "low"}

###

Listing: ΔTm of selected compounds
target.of.assay: Cyclin-dependent kinase 2 (Homo sapiens)
assay.context: Compound concentration 20.0 uM
Description: Thermal Shift Assay. Domain: start/stop: M1-L298
Residues, ends and D or L forms follow the SMILES beside them. *: point of attachment. Boc = CC(C)(C)OC(=O)*

{"compound": "COc1ccc([C@@H]2CNC(=O)C2)cc1OC1CCCC1", "target.of.assay": "Cyclin-dependent kinase 2 (Homo sapiens)", "ΔTm (°C)": 0.13}
{"compound": "O=C(NO)c1ccc(CN(c2cnccn2)c2cnccn2)cc1", "target.of.assay": "Cyclin-dependent kinase 2 (Homo sapiens)", "ΔTm (°C)": -0.02}
{"compound": "COc1cc(Nc2ncc(F)c(Nc3ccc4c(n3)N(COP(=O)(O)O)C(=O)C(C)(C)O4)n2)cc(OC)c1OC", "target.of.assay": "Cyclin-dependent kinase 2 (Homo sapiens)", "ΔTm (°C)": 5.51}
{"compound": "N[C@@H](CCNCc1ccc(Cl)cc1)C(=O)N1CCCCC1", "target.of.assay": "Cyclin-dependent kinase 2 (Homo sapiens)", "ΔTm (°C)": 0}
{"compound": "Cc1cc(C)nc(SCC(=O)Nc2ncc(Cc3cccc4ccccc34)s2)n1", "target.of.assay": "Cyclin-dependent kinase 2 (Homo sapiens)", "ΔTm (°C)": 0.38}
{"compound": "Nc1ncnc2c1ncn2[C@@H]1O[C@H](C[C@@H](N)CC[C@H](N)C(=O)O)[C@@H](O)[C@H]1O", "target.of.assay": "Cyclin-dependent kinase 2 (Homo sapiens)", "ΔTm (°C)": -0.94}
{"compound": "CCNC(=O)NCCSC[C@H]1O[C@@H](n2cnc3c(N)ncnc32)[C@H](O)[C@@H]1O", "target.of.assay": "Cyclin-dependent kinase 2 (Homo sapiens)", "ΔTm (°C)": 0.53}
{"compound": "Nc1ccc(-c2cccs2)cc1NC(=O)c1ccc(NC=O)cc1", "target.of.assay": "Cyclin-dependent kinase 2 (Homo sapiens)", "ΔTm (°C)": 1.18}
{"compound": "CC(C)[C@H](NC(=O)[C@H](CCC(=O)O)NC(=O)[C@H](C)NC(=O)OC(C)(C)C)C(=O)N[C@H](C=O)CC(=O)O (Boc-AEVD-aldehyde)", "target.of.assay": "Cyclin-dependent kinase 2 (Homo sapiens)", "ΔTm (°C)": -0.28}
{"compound": "CN(CCC(Oc1ccc(-c2ccccc2)cc1)c1ccc(F)cc1)CC(=O)O (stereo not given)", "target.of.assay": "Cyclin-dependent kinase 2 (Homo sapiens)", "ΔTm (°C)": 1.59}

###

target.of.assay: Casein kinase I isoform delta (Homo sapiens) (UniProt P48730)
Sequence (P48730 whole entry, looked up, canonical isoform): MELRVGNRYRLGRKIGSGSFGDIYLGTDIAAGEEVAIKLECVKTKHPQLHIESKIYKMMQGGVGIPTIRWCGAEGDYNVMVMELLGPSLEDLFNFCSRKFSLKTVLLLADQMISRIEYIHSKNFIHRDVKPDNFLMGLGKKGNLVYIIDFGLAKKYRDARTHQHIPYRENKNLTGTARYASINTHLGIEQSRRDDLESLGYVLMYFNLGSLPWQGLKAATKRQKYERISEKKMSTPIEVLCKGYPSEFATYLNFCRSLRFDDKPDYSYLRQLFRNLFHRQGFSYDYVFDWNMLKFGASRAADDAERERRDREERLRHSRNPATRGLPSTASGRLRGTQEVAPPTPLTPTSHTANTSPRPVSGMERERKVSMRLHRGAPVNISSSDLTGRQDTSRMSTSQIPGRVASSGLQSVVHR
assay.context: Compound concentration 20.0 uM
Description: Thermal Shift Assay. Domain: start/stop: M1-K294
Consider the following partition of reported ΔTm into named classes: 1: < -0.2 °C; 2: ≥ -0.2 °C and < 0.2 °C; 3: ≥ 0.2 °C

{"compound": "Cc1cc(C)nc(SCC(=O)Nc2ncc(Cc3cccc(OCc4cn(Cc5ccccc5)nn4)c3)s2)n1", "category": 1}
{"compound": "CCC[C@@H]1CNCc2c1[nH]c(=O)c(C#N)c2N1CCC2(CC1)CC2", "category": 3}
{"compound": "Cc1ccc2c(c1)nc(/C=C/c1cccc3cccnc13)n2-c1cccc(OCCCN2CCN(C)CC2)c1", "category": 2}
{"compound": "CC(=O)C(=Cc1cc(O)c(O)c([N+](=O)[O-])c1)C(C)=O", "category": 1}
{"compound": "O=C(NO)c1ccc(CN2CCCc3cc(Cl)ccc32)cc1", "category": 2}
{"compound": "Cn1nc2c(=O)n(CC3(O)CCN(C(=O)C[C@H](c4ccccc4)C(F)(F)F)CC3)cnc2c1-c1ccc(CN)cc1", "category": 1}
{"compound": "CNC(=O)c1cnc(N2CCC[C@H](N)C2)nc1Nc1cc(C(C)C)nc(C(C)C)c1", "category": 3}
{"compound": "CC(C)[C@H](NC(=O)OCc1ccccc1)C(=O)NC(CC(=O)O)C(=O)CF (some centres undefined)", "category": 2}
{"compound": "Cn1cc(C(=O)Nc2ccc([C@@H]3C[C@H]3NCC3CC3)cc2)cn1", "category": 2}
{"compound": "O=c1[nH]c(CS[C@H]2CC[C@H](O)CC2)nc2cc(OCC3CC3)cc(F)c12", "category": 1}
{"compound": "CNC(=O)c1cc(Nc2ccnc(Nc3ccc(CCNC(=O)OC(C)(C)C)cc3)n2)n[nH]1", "category": 3}
{"compound": "O=C(Cc1ccccc1)c1cc(O)c(O)c([N+](=O)[O-])c1", "category": 1}
{"compound": "Cc1cc(-c2ccccc2)cc(C(=O)NNS(=O)(=O)c2ccccc2)c1F", "category": 3}
{"compound": "CC(C)(C)OC(=O)NCCCCCN(CCc1ccccc1)C(=O)n1cc(-c2ccc(OC(F)(F)F)cc2)nn1", "category": 1}
{"compound": "CCNC(=O)c1cc2c(-c3cc(C(C)(C)O)ccc3Oc3c(C)cc(F)cc3C)cn(C)c(=O)c2[nH]1", "category": 1}
{"compound": "CC(c1cccc2ccccc12)n1cnc2c(=O)[nH]c(Cc3ccccc3)nc21 (centres undefined)", "category": 3}
{"compound": "C[C@H](NC(=O)[C@H](Cc1ccccc1)NC(=O)OCc1ccccc1)C(=O)CF", "category": 2}
{"compound": "CC(C)N(C(=O)c1cc(F)ccc1Oc1cncnc1N1CC2(CCN(C[C@H]3CC[C@H](NS(C)(=O)=O)CC3)CC2)C1)C(C)C", "category": 1}
{"compound": "CN1CCN(c2ccc3nc(-c4c(N)c5c(F)cccc5[nH]c4=O)[nH]c3c2)CC1", "category": 3}
{"compound": "O=C(CCCCCCNC(=O)c1cnc(N(c2ccccc2)c2ccccc2Cl)nc1)NO", "category": 2}
{"compound": "c1cncc(-c2cnn[nH]2)c1", "category": 2}
{"compound": "CC(C)NC(=O)c1ccc(OC(F)F)c(OCC2CC2)c1", "category": 2}
{"compound": "CCCNC(=O)[C@H]1O[C@@H]1C(=O)N[C@H](C(=O)N1CCC[C@H]1C(=O)O)[C@@H](C)CC", "category": 2}
{"compound": "Cc1cnc(-c2ccccc2C(C)C)nc1NCc1ccc(-n2ccnn2)cc1", "category": 1}
{"compound": "COc1cc2/c(=N/c3ccc(Br)cc3F)nc[nH]c2cc1OCC1CCN(C)CC1", "category": 3}
{"compound": "Nc1ncnc2c1ncn2[C@@H]1O[C@H](C[C@@H](N)CC[C@H](N)C(=O)O)[C@@H](O)[C@H]1O", "category": 2}
{"compound": "CS(=O)(=O)c1ccc(-c2nnc(C=Cc3nnc(-c4ccc(C#N)cc4)o3)n2-c2ccccc2Cl)nc1", "category": 1}
{"compound": "O=C(NO)c1ccc(CN(c2cnccn2)c2cnccn2)cc1", "category": 2}
{"compound": "CCCOc1cc(OCCCCN(C)C)cc(Oc2cc3c(cc2NS(=O)(=O)c2ccc(OC)c(OC)c2)n(C)c(=O)n3C)c1", "category": 3}
{"compound": "OC[C@H]1O[C@@H](c2ccc(Cl)c(Cc3ccc(O[C@H]4CCOC4)cc3)c2)[C@H](O)[C@@H](O)[C@@H]1O", "category": 1}
{"compound": "COc1cc(Oc2ccnc3cc(OC)c(OC)cc23)ccc1NC(=O)NC(C)c1nccs1 (centres undefined)", "category": 3}
{"compound": "O=C(O)C1=CCCN(CCON=C(c2ccccc2)c2ccccc2)C1", "category": 2}
{"compound": "Cc1noc(C)c1-c1cc(Cl)c(Nc2ccccc2C(=O)O)c(Cl)c1", "category": 1}
{"compound": "CCCc1nc(C)c2c(=O)nc(-c3cc(S(=O)(=O)N4CCN(CC)CC4)ccc3OCC)[nH]n12", "category": 2}
{"compound": "O=C(CN1CCN(C(=O)c2ccco2)CC1)Nc1cc(C(F)(F)F)ccc1Cl", "category": 2}
{"compound": "C[C@]12CCCN1CC1=NNC(=O)c3cc(F)cc4[nH]c2c1c34", "category": 3}
{"compound": "Cc1c(NC(=O)c2cc(C(N)=O)nc3cc(F)ccc23)c(C(F)(F)F)nn1Cc1ccc(C#N)cc1", "category": 2}
{"compound": "COc1ccccc1C(=O)Nc1cc2c(cc1N1CCCCC1)n(C)c(=O)n2C", "category": 2}
